measurement-target: UniProt:O00444
test-protocol: PLK-4 human kinase inhibition, scintillation proximity assay (SPA)
Type: biochemical
measurement-parameters: read-out: PLK4 pIC50 (converted)
This section presents compounds with their documented IC50 values.
test-readout: IC50

| chemical-smiles | test-readout | reported-value |
| --- | --- | --- |
| O=C1NCCCOc2cccc(c2)-c2ccnc(n2)Nc2ccc(N3CCOCC3)c(c2)CN2CCC1CC2 | IC50 | 1120 nM |
| O=C1NCCNCc2ccc(cc2)-c2ccnc(n2)Nc2ccc(N3CCOCC3)c(c2)CN2C[C@H](O)C[C@@H]12 | IC50 | 3550 nM |
| O=C1NCCCNCc2ccc(cc2)-c2ccnc(n2)Nc2ccc(N3CCOCC3)c(c2)CN2CCC1CC2 | IC50 | 1580 nM |
| CN1CCCNC(=O)[C@H](CO)NCc2cc(Br)cc(c2)Nc2nccc(n2)-c2ccc(cc2)C1 | IC50 | 759 nM |

----------
Tested on: HCT-116
test-protocol: Cellular proliferation assay (Alamar blue), HCT-116
Assay type: cell-based
measurement-parameters: Homo sapiens, 10% FCS, 72 hours with compound, Alamar blue 4 h
pIC50: −log10 of the molar value.
test-readout: pIC50

| chemical-smiles | test-readout | reported-relation | reported-value |
| --- | --- | --- | --- |
| CC1(C)NCc2cc(ccc2N2CCOCC2)Nc2nccc(n2)-c2cccc(c2)OCCCNC1=O | pIC50 | = | 5.77 |
| O=C1NCc2cccc(c2)-c2ccnc(n2)Nc2cc(ccc2Cl)CN[C@H]1CO | pIC50 | < | 5.00 |
| CN1CCNC(=O)CN2CCN(CC2)Cc2cc(Br)cc(c2)Nc2nccc(n2)-c2ccc(cc2)C1 | pIC50 | = | 5.07 |
| C[C@@H]1NCc2ccc(cc2)Nc2nccc(n2)-c2cccc(c2)CNC1=O | pIC50 | < | 5.00 |

----------
This section presents compounds with their documented IC50 values.
measurement-target: GSK3β (h) (Homo sapiens)
Sequence (P49841 whole entry): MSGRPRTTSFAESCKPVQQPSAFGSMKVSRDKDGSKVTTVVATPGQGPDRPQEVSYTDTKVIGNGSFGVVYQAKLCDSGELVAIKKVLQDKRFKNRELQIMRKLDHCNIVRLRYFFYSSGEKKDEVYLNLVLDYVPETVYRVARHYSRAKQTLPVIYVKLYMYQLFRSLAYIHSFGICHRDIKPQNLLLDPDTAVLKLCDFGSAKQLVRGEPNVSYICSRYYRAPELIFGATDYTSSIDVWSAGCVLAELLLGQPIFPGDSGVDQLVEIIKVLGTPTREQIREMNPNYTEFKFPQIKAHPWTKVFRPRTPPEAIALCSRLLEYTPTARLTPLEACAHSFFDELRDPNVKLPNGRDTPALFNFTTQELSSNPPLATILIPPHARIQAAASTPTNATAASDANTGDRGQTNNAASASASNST
test-protocol: GSK-3β human kinase inhibition, SPA
Type: biochemical
measurement-parameters: read-out: GSK3b pIC50 (converted)
Procedure: The in vitro inhibition of a panel of kinases was assessed using either the scintillation proximity assay (SPA) as described by Cook, N. D. et al., Advances in Experimental Medicine and Biology (1991), 36; p. 525-528. In the SPA technology the activity of the kinase of interest is measured using an appropriate biotinylated substrate that is incubated with the aforementioned kinase protein in the presence of (^33P) radiolabeled ATP. […] The scintillation intensity is detected by imaging on Leadseeker. […]

| compound | IC50 |
| --- | --- |
| CN1CCN(C)c2ccc(cn2)-c2ccnc(n2)Nc2cc(c3c(c2)OCO3)CN2CCC[C@H]2C1=O | 1450 nM |
| COc1ccc2cc1CN(C)CCCNC(=O)[C@H](CO)NCc1cc(Br)cc(c1)Nc1nccc-2n1 | 3890 nM |
| CN(C)C(=O)c1ccc2cc1CN1CCC[C@H]1C(=O)NCc1cccc(c1)-c1ccnc(n1)N2 | 87.1 nM |
| COc1ccc2cc1CN(C)CCCNC(=O)[C@@H]1CCCN1Cc1cc(NCCc3ccccc3)cc(c1)Nc1nccc-2n1 | > 10000 nM |
| COc1ccc2cc1CN(C)CCNC(=O)[C@@H]1CCCN1Cc1cc(cc(NC(C)C)c1)Nc1nccc-2n1 | > 10000 nM |
| CC(C)Nc1cc2cc(c1)Nc1nccc(n1)-c1ccc(cc1)CN(C)CCNC(=O)C1CCN(CC1)C2 | 7590 nM |
| O=C1NCc2cccc(c2)-c2ccnc(n2)Nc2ccc(N3CCOCC3)c(c2)CN2CCC1CC2 | 3720 nM |
| C[C@@H]1NCc2cc(ccc2N2CCOCC2)Nc2nccc(n2)-c2cccc(c2)CNC1=O | 661 nM |
| C[C@@H]1NCc2cccc(c2)Nc2nccc(n2)-c2cccc(c2)CNC1=O | 102 nM |
| O=C1CN2CCN(CC2)Cc2cc(ccc2N2CCOCC2)Nc2nccc(n2)-c2cccc(c2)CN1 | 6030 nM |
| COc1ccc2cc1CN(C)CCNC(=O)[C@@H]1CCCN1Cc1cc(NCCc3ccccc3)cc(c1)Nc1nccc-2n1 | > 10000 nM |
| O=C1CN2CCN(CC2)Cc2cc(ccc2N2CCOCC2)Nc2nccc(n2)-c2ccc(cc2)OCCN1 | 1450 nM |
| O=C1NCCNc2cc(ccn2)-c2ccnc(n2)Nc2ccc(N3CCOCC3)c(c2)CN2CCCC12 (stereo not drawn) | 182 nM |
| O=C1CN2CCN(CC2)Cc2cccc(c2)Nc2nccc(n2)-c2cccc(c2)CN1 | 1070 nM |
| CC(C)Nc1cc2cc(c1)Nc1nccc(n1)-c1ccc(cc1)CN(C)CCCNC(=O)[C@H](CO)NC2 | > 10000 nM |

----------
measurement-target: PLK4 (h) (Homo sapiens)
Sequence (O00444 whole entry): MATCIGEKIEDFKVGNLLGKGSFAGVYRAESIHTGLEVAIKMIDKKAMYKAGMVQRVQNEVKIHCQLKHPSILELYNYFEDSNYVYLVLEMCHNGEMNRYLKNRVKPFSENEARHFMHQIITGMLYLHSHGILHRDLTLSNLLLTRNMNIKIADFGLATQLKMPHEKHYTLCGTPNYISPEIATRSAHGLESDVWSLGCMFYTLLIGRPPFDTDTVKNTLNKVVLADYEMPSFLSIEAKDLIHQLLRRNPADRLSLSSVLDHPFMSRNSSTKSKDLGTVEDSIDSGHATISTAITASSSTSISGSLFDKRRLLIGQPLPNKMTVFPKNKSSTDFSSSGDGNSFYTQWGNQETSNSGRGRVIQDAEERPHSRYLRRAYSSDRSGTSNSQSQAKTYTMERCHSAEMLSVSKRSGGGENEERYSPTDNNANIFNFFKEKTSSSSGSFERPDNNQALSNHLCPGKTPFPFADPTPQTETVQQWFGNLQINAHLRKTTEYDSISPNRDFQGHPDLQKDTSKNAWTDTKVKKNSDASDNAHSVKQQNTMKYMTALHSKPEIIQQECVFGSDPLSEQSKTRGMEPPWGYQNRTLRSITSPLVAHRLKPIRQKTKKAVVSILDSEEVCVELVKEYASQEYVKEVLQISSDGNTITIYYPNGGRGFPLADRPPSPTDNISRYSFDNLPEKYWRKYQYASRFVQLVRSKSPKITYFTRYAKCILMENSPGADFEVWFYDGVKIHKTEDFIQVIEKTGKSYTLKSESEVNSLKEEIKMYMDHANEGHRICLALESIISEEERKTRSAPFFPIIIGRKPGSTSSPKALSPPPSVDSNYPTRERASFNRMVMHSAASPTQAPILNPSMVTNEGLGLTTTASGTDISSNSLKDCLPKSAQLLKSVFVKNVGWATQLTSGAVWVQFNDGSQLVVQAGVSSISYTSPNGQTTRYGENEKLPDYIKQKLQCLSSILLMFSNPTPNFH
test-protocol: PLK-4 human kinase inhibition, scintillation proximity assay (SPA)
Type: biochemical
measurement-parameters: read-out: PLK4 pIC50 (converted)
This section presents compounds with their documented log10 IC50 values.
test-readout: log10 IC50 (log10 of the value in µM)

| chemical-smiles | measurement-target | log10 IC50 |
| --- | --- | --- |
| COc1cc2cc(c1)Nc1nccc(n1)-c1ccc(OC)c(c1)CN(C)CCCNC(=O)C1CCN(CC1)C2 | PLK4 (h) (Homo sapiens) | 0.41 |
| O=C1NCc2cccc(c2)-c2ccnc(n2)Nc2ccc(N3CCOCC3)c(c2)CN[C@H]1Cc1ccccc1 | PLK4 (h) (Homo sapiens) | -0.19 |
| O=C1NCc2cccc(c2)-c2ccnc(n2)Nc2cccc(c2)CN[C@H]1CO | PLK4 (h) (Homo sapiens) | 0.03 |
| C[C@@H]1NCc2cccc(c2)-c2ccnc(n2)Nc2ccc(N3CCOCC3)c(c2)CNC1=O | PLK4 (h) (Homo sapiens) | 0.26 |
| O=C1NCc2cccc(c2)-c2ccnc(n2)Nc2cc(CNC3CCCCC3)cc(c2)CN2CCC[C@@H]12 | PLK4 (h) (Homo sapiens) | -0.66 |
| COc1ccc2cc1CN(C)CCCNC(=O)C1CCN(CC1)Cc1cc(cc(NC(C)C)c1)Nc1nccc-2n1 | PLK4 (h) (Homo sapiens) | 0.20 |
| CN1CCNC(=O)[C@@H]2CCCN2Cc2cc(Br)cc(c2)Nc2nccc(n2)-c2ccc(cc2)C1 | PLK4 (h) (Homo sapiens) | -0.08 |

----------
This section presents compounds with their documented IC50 values.
measurement-target: PLK4 (h) (Homo sapiens)
test-protocol: PLK-4 human kinase inhibition, scintillation proximity assay (SPA)
Format: biochemical
measurement-parameters: read-out: PLK4 pIC50 (converted)

| chemical-smiles | unit-of-measurement | reported-relation | IC50 |
| --- | --- | --- | --- |
| O=C1NCCNCc2ccc(cc2)-c2ccnc(n2)Nc2ccc(N3CCOCC3)c(c2)CN2CCC[C@@H]12 | nM | = | 1070 |
| CN1CCN(C)c2ccc(cn2)-c2ccnc(n2)Nc2cc(c3c(c2)OCO3)CN2CCC[C@H]2C1=O | nM | = | 3550 |
| CN1CCCNC(=O)C2CCN(CC2)Cc2cccc(c2)Nc2nccc(n2)-c2ccc(cc2)C1 | nM | = | 4900 |
| COc1ccc2cc1CNCCCNC(=O)[C@@H]1C[C@@H](O)CN1Cc1cc(ccc1N1CCOCC1)Nc1nccc-2n1 | nM | > | 10000 |
| C[C@@H]1NCc2ccc(cc2)Nc2nccc(n2)-c2cccc(c2)CNC1=O | nM | > | 10000 |
| COCCNC(=O)c1cc2cc(c1)Nc1nccc(n1)-c1cccc(c1)CNC(=O)[C@@H]1CCCN1C2 | nM | = | 407 |
| COc1cc2cc(c1)Nc1nccc(n1)-c1ccc(cc1)CN(C)CCNC(=O)C1CCN(CC1)C2 | nM | = | 871 |
| COc1ccc2cc1CN1CCC(CC1)C(=O)N(C)CCN(C)c1ccc(cn1)-c1ccnc(n1)N2 | nM | = | 2400 |
| COc1ccc2cc1CN(C)CCNC(=O)C1CCN(CC1)Cc1cc(cc(N3CCOCC3)c1)Nc1nccc-2n1 | nM | = | 4790 |
| O=C1NCc2cccc(c2)-c2ccnc(n2)Nc2cccc(c2)CN2CCC1CC2 | nM | = | 8710 |
| COc1ccc2cc1CN(C)CCCNC(=O)[C@H](CO)NCc1cc(Br)cc(c1)Nc1nccc-2n1 | nM | = | 912 |
| O=C1NCc2cccc(c2)-c2ccnc(n2)Nc2ccccc2CN2CCC[C@@H]12 | nM | > | 10000 |
| COc1ccc2cc1CN(C)CCNC(=O)[C@@H]1CCCN1Cc1cccc(c1)Nc1nccc-2n1 | nM | = | 8510 |
| COc1ccc2cc1CNCCCNC(=O)C1CCN(CC1)Cc1cc(ccc1N1CCOCC1)Nc1nccc-2n1 | nM | = | 87.1 |
| COc1ccc2cc1CN(C)CCNC(=O)C1CCN(CC1)Cc1cccc(c1)Nc1nccc-2n1 | nM | > | 10000 |
| O=C1CN2CCN(CC2)Cc2cc(ccc2N2CCOCC2)Nc2nccc(n2)-c2cccc(c2)OCCCN1 | nM | = | 1100 |
| O=C1NCc2cccc(c2)-c2ccnc(n2)Nc2ccc(cc2)CN[C@H]1Cc1ccccc1 | nM | > | 10000 |
| COCCNCc1cc2cc(c1)Nc1nccc(n1)-c1cccc(c1)CNC(=O)[C@@H]1CCCN1C2 | nM | = | 178 |
| CN1CCCNC(=O)[C@H](CO)NCc2cc(cc(N3CCOCC3)c2)Nc2nccc(n2)-c2ccc(cc2)C1 | nM | = | 513 |
| COc1ccc2cc1CN1CCC(CC1)C(=O)N(C)CCCN(C)c1ccc(cn1)-c1ccnc(n1)N2 | nM | = | 5890 |
| CN(C)Cc1cc2cc(c1)Nc1nccc(n1)-c1cccc(c1)CNC(=O)[C@@H]1CCCN1C2 | nM | = | 162 |
| O=C1CN2CCN(CC2)Cc2cc(ccc2N2CCOCC2)Nc2nccc(n2)-c2ccc(cc2)CNCCCN1 | nM | = | 2190 |
| O=C1CN2CCN(CC2)Cc2cccc(c2)Nc2nccc(n2)-c2cccc(c2)CN1 | nM | > | 10000 |
| CN(C)C(=O)c1cc2cc(c1)Nc1nccc(n1)-c1cccc(c1)CNC(=O)[C@@H]1CCCN1C2 | nM | = | 204 |
| O=C1NCc2cccc(c2)-c2ccnc(n2)Nc2cccc(c2)CN2CCC[C@@H]12 | nM | > | 10000 |
| O=C1NCc2cccc(c2)-c2ccnc(n2)Nc2ccc(N3CCOCC3)c(c2)CN2CCC1CC2 | nM | = | 6610 |
| CN1CCNC(=O)[C@@H]2CCCN2Cc2cccc(c2)Nc2nccc(n2)-c2ccc(cc2)C1 | nM | = | 1550 |
| COc1ccc2cc1CN(C)CCCNC(=O)C1CCN(CC1)Cc1cc(cc(N3CCOCC3)c1)Nc1nccc-2n1 | nM | = | 5370 |
| COc1ccc2cc1CN(C)CCCNC(=O)C1CCN(CC1)Cc1cc(Br)cc(c1)Nc1nccc-2n1 | nM | = | 3240 |
| CN(C)CCNCc1cc2cc(c1)Nc1nccc(n1)-c1cccc(c1)CNC(=O)[C@@H]1CCCN1C2 | nM | = | 166 |
| O=C1CN2CCN(CC2)Cc2cc(ccc2N2CCOCC2)Nc2nccc(n2)-c2ccc(cc2)OCCN1 | nM | = | 417 |

Taken from patent US8609836B2.
